All values here come from PubChem BioAssay (NCI).

Would you mind telling me the reported TGI of each entry?
Tested on: SK-MEL-5 melanoma
METHOD_DESCRIPTION: NCI tumour cell line growth inhibition, 48 h

1) O=CC(O)C(O)C(O)COc1cc(CO)cc2c1C(=O)c1ccccc1C2=O (centres undefined)	> 100 µM
2) C/C(=C/CNc1ncnc2c1ncn2CCC(=O)O)CO	> 100 µM
3) CCOC(=O)c1c(NS(=O)(=O)c2ccc(Br)cc2)sc2c1CCCC2	18.2 µM

For each of the compounds below, state TGI.
1. COC(=O)c1c(O)ccc2c1c1c(n2Cc2ccccn2)C(=O)c2ccccc2C1
2. CN(C)C/C=C(/c1ccc(Br)cc1)c1cccnc1
3. COc1cc(-c2nn(C)nc2-c2cc3ccccc3s2)cc(OC)c1OC
4. NC(=S)SC1=NNC2(C(=O)N1)c1ccccc1-c1ccccc12
5. Cn1c(O)c(C=N)c(=O)n(C)c1=O

OUTPUT:
1: > 100 µM; 2: 45.5 µM; 3: > 100 µM; 4: > 10 µM; 5: > 100 µM
